test system: 379773-124-R-J2-PDC complex spheroids, viability % test/control; experiment: Anticancer human tumor 379773-124-R-J2-PDC patient-derived endometrial carcinoma cell line growth inhibition [CLK]; conditions: second compound 0.1 µM; first compound 0.0316 µM; stronger effect = lower value
Assay Readout: viability, T/C

compound="C=C(F)C(=O)N1CCN(c2nc(OCC3CCCN3C)nc3c2CCN(c2cccc4cccc(Cl)c24)C3)CC1CC#N (stereo unspecified) + CN1CCN(c2cc(C(=O)Nc3cc4cc(-c5cnn(C)c5)ccc4cn3)ccn2)CC1" value_measured=85.8%
compound="CC(Nc1ccc2c(c1)OCCn1cc(N3C(=O)OCC3C(F)F)nc1-2)C(N)=O (stereo unspecified) + CNC(=O)c1ccc(Nc2nc(OC3CCCC3)c3c(-c4ccc5nc(C)oc5c4)c[nH]c3n2)c(OC)c1" value_measured=38.7%
compound="C=CC(=O)N1CCN(c2nc(=O)n(-c3c(C)ccnc3C(C)C)c3nc(-c4c(O)cccc4F)c(F)cc23)C(C)C1 (stereo unspecified) + CNC(=O)c1ccc(Nc2nc(OC3CCCC3)c3c(-c4ccc5nc(C)oc5c4)c[nH]c3n2)c(OC)c1" value_measured=34.9%
compound="CCc1c2c(nc3ccc(O)cc13)-c1cc3c(c(=O)n1C2)COC(=O)[C@]3(O)CC + CNC(=O)c1ccc(Nc2nc(OC3CCCC3)c3c(-c4ccc5nc(C)oc5c4)c[nH]c3n2)c(OC)c1" value_measured=2.4%
compound="Nc1ccccc1NC(=O)c1ccc(CNC(=O)OCc2cccnc2)cc1 + CN1CCN(c2cc(C(=O)Nc3cc4cc(-c5cnn(C)c5)ccc4cn3)ccn2)CC1" value_measured=82.2%
compound="O=C(c1cc(Cc2n[nH]c(=O)c3ccccc23)ccc1F)N1CCN(C(=O)C2CC2)CC1 + CNC(=O)c1ccc(Nc2nc(OC3CCCC3)c3c(-c4ccc5nc(C)oc5c4)c[nH]c3n2)c(OC)c1" value_measured=41.1%

---

system: 379773-124-R-J2-PDC complex spheroids, viability % test/control; assay: Anticancer human tumor 379773-124-R-J2-PDC cell line growth inhibition [CLK]; settings: curve of first compound; second compound 0.1 µM;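 note: compound exposure lasted seven days before the viability readout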
Assay Readout: IC50 (µM)

compound="O=C(c1cc(Cc2n[nH]c(=O)c3ccccc23)ccc1F)N1CCN(C(=O)C2CC2)CC1 + CN1CCN(c2cc(C(=O)Nc3cc4cc(-c5cnn(C)c5)ccc4cn3)ccn2)CC1" assay_readout=IC50 relation== value_measured=6.85
compound="CC(Nc1ccc2c(c1)OCCn1cc(N3C(=O)OCC3C(F)F)nc1-2)C(N)=O (stereo not drawn) + CN1CCN(c2cc(C(=O)Nc3cc4cc(-c5cnn(C)c5)ccc4cn3)ccn2)CC1" assay_readout=IC50 relation== value_measured=8.87
compound="C=C(F)C(=O)N1CCN(c2nc(OCC3CCCN3C)nc3c2CCN(c2cccc4cccc(Cl)c24)C3)CC1CC#N (stereo not drawn) + CNC(=O)c1ccc(Nc2nc(OC3CCCC3)c3c(-c4ccc5nc(C)oc5c4)c[nH]c3n2)c(OC)c1" assay_readout=IC50 relation=< value_measured=0.0316

---

test system: 379773-124-R-J2-PDC complex spheroids, viability % test/control; test: Anticancer human tumor 379773-124-R-J2-PDC cell line growth inhibition [CLK]; details: second compound 0.316 µM; first compound 10 µM; stronger effect = lower value;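 note: compound exposure lasted seven days before the viability readout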;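 for viability, T/C: 100% = DMSO vehicle control wells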
viability, T/C under 10% gets met, anything at or over 10% gets not met.

molecule="CC(CO)NC(=O)c1cc(-c2ccc(Cl)cc2)nn(-c2cnn(C)c2)c1=O (stereo not given) + CNC(=O)c1ccc(Nc2nc(OC3CCCC3)c3c(-c4ccc5nc(C)oc5c4)c[nH]c3n2)c(OC)c1" system_tested="379773-124-R-J2-PDC complex spheroids, viability % test/control" class_label="not met"
molecule="CC(CO)NC(=O)c1cc(-c2ccc(Cl)cc2)nn(-c2cnn(C)c2)c1=O (stereo not given) + CN1CCN(c2cc(C(=O)Nc3cc4cc(-c5cnn(C)c5)ccc4cn3)ccn2)CC1" system_tested="379773-124-R-J2-PDC complex spheroids, viability % test/control" class_label="not met"
molecule="CC1COCCN1c1cc(C2(S(C)(=N)=O)CC2)nc(-c2ccnc3[nH]ccc23)n1 (stereo not given) + CN1CCN(c2cc(C(=O)Nc3cc4cc(-c5cnn(C)c5)ccc4cn3)ccn2)CC1" system_tested="379773-124-R-J2-PDC complex spheroids, viability % test/control" class_label=met
molecule="C=C(F)C(=O)N1CCN(c2nc(OCC3CCCN3C)nc3c2CCN(c2cccc4cccc(Cl)c24)C3)CC1CC#N (stereo not given) + CN1CCN(c2cc(C(=O)Nc3cc4cc(-c5cnn(C)c5)ccc4cn3)ccn2)CC1" system_tested="379773-124-R-J2-PDC complex spheroids, viability % test/control" class_label=met
molecule="O=C(c1cc(Cc2n[nH]c(=O)c3ccccc23)ccc1F)N1CCN(C(=O)C2CC2)CC1 + CNC(=O)c1ccc(Nc2nc(OC3CCCC3)c3c(-c4ccc5nc(C)oc5c4)c[nH]c3n2)c(OC)c1" system_tested="379773-124-R-J2-PDC complex spheroids, viability % test/control" class_label="not met"
molecule="CC(=O)O[C@H]1C(=O)[C@@]2(C)[C@H]([C@H](OC(=O)c3ccccc3)[C@]3(O)C[C@H](OC(=O)[C@H](O)[C@@H](NC(=O)c4ccccc4)c4ccccc4)C(C)=C1C3(C)C)[C@]1(OC(C)=O)CO[C@@H]1C[C@@H]2O + CNC(=O)c1ccc(Nc2nc(OC3CCCC3)c3c(-c4ccc5nc(C)oc5c4)c[nH]c3n2)c(OC)c1" system_tested="379773-124-R-J2-PDC complex spheroids, viability % test/control" class_label="not met"
molecule="CC(Nc1ccc2c(c1)OCCn1cc(N3C(=O)OCC3C(F)F)nc1-2)C(N)=O (stereo not given) + CN1CCN(c2cc(C(=O)Nc3cc4cc(-c5cnn(C)c5)ccc4cn3)ccn2)CC1" system_tested="379773-124-R-J2-PDC complex spheroids, viability % test/control" class_label="not met"
molecule="COC1C=CCC(C)C(C)S(=O)(=O)NC(=O)c2ccc3c(c2)N(CC2CCC21)CC1(CCCc2cc(Cl)ccc21)CO3 (stereo not given) + CNC(=O)c1ccc(Nc2nc(OC3CCCC3)c3c(-c4ccc5nc(C)oc5c4)c[nH]c3n2)c(OC)c1" system_tested="379773-124-R-J2-PDC complex spheroids, viability % test/control" class_label=met
molecule="O=c1[nH]cc(F)c(=O)[nH]1 + CN1CCN(c2cc(C(=O)Nc3cc4cc(-c5cnn(C)c5)ccc4cn3)ccn2)CC1" system_tested="379773-124-R-J2-PDC complex spheroids, viability % test/control" class_label="not met"
molecule="COc1ccc([C@@H](O)c2cc(-c3ncnc4cc(N5CCOCC5)ccc34)c(F)cc2Cl)nn1 + CN1CCN(c2cc(C(=O)Nc3cc4cc(-c5cnn(C)c5)ccc4cn3)ccn2)CC1" system_tested="379773-124-R-J2-PDC complex spheroids, viability % test/control" class_label=met

---

Test system: 379773-124-R-J2-PDC complex spheroids, viability % test/control
Experiment: Anticancer human tumor 379773-124-R-J2-PDC cell line growth inhibition [CLK]; active means viability on the fitted dose curve at most 10% of control; inactive means the rest;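 note: compound exposure lasted seven days before the viability readout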
Settings: second compound 0.316 µM; first compound 0.316 µM
Description: A high-throughput screen of multi-cell type tumor spheroids was designed to identify active combinations of […] and targeted small molecules. Complex spheroids include a stromal component modeled by human endothelial cells (HUVEC) and fibroblasts modeled by human mesenchymal stem cells (MSCs). […] Compounds. […] If the clinical Cmax for an agent had not been determined, the highest concentration tested was 10 microM. […]
Labels: Y = active, N = inactive

compound="CC(=O)O[C@H]1C(=O)[C@@]2(C)[C@H]([C@H](OC(=O)c3ccccc3)[C@]3(O)C[C@H](OC(=O)[C@H](O)[C@@H](NC(=O)c4ccccc4)c4ccccc4)C(C)=C1C3(C)C)[C@]1(OC(C)=O)CO[C@@H]1C[C@@H]2O + CNC(=O)c1ccc(Nc2nc(OC3CCCC3)c3c(-c4ccc5nc(C)oc5c4)c[nH]c3n2)c(OC)c1" system_tested="379773-124-R-J2-PDC complex spheroids, viability % test/control" class_label=N
compound="C=CC(=O)N1CCN(c2nc(=O)n(-c3c(C)ccnc3C(C)C)c3nc(-c4c(O)cccc4F)c(F)cc23)C(C)C1 (centres undefined) + CN1CCN(c2cc(C(=O)Nc3cc4cc(-c5cnn(C)c5)ccc4cn3)ccn2)CC1" system_tested="379773-124-R-J2-PDC complex spheroids, viability % test/control" class_label=N
compound="COc1cccc2c1C(=O)c1c(O)c3c(c(O)c1C2=O)CC(O)(C(=O)CO)CC3OC1CC(N)C(O)C(C)O1 (centres undefined) + CN1CCN(c2cc(C(=O)Nc3cc4cc(-c5cnn(C)c5)ccc4cn3)ccn2)CC1" system_tested="379773-124-R-J2-PDC complex spheroids, viability % test/control" class_label=Y
compound="C=C(F)C(=O)N1CCN(c2nc(OCC3CCCN3C)nc3c2CCN(c2cccc4cccc(Cl)c24)C3)CC1CC#N (centres undefined) + CN1CCN(c2cc(C(=O)Nc3cc4cc(-c5cnn(C)c5)ccc4cn3)ccn2)CC1" system_tested="379773-124-R-J2-PDC complex spheroids, viability % test/control" class_label=N
